Taken from PubChem BioAssay (NCI).

System: HOP-92 NSCLC
Assay: NCI-60 one-dose screen, 48 h (100 = growth as untreated, 0 = no growth, -100 = all killed)
Settings: 10 µM unless noted
Protocol: Growth inhibition of the HOP-92 human Non-Small Cell Lung tumor cell line is measured as a screen for anti-cancer activity. Cells are grown in 96 well plates and exposed to the test compound for 48 hours. Compounds are tested at a single concentration, which is 10^-5 M for most compounds. The reported endpoint is percent growth (GI% or GIPRCNT), where numbers from 0 - 100% represent growth inhibition, and numbers from -100% - 0 represent cell death. […]
This is part of a sample that, as a whole, favours compounds with a hit. Of some 83,000 tested, about 20% had one in any assay.
Param threshold (70%) applies to growth; output TRUE when value >= threshold, FALSE when value < threshold.

Enquiry: Textbook exercise: given the entry CC[C@H](CC[C@@H](C)[C@H]1CC[C@H]2[C@@H]3CC(=O)C4=CC(=O)/C(=C/c5ccc([N+](=O)[O-])cc5)C[C@]4(C)[C@H]3CC[C@]12C)C(C)C , state whether its growth is greater than or equal to 70%.
Return: TRUE

Enquiry: Textbook exercise: given the entry N#Cc1c(-c2cccs2)cc(-c2cnccn2)nc1SCC(=O)N/N=C/c1cccs1 , state whether its growth is greater than or equal to 70%.
Return: FALSE

Enquiry: Textbook exercise: given the entry COC(=O)c1ccc(NC2=C(Cl)C(=O)C(C)=C(C)C2=O)cc1 , state whether its growth is greater than or equal to 70%.
Return: FALSE

Enquiry: Textbook exercise: given the entry Cn1cc(-c2nnc(N)nc2-c2c[nH]c3ccc(Br)cc23)c2cc(Br)ccc21 , state whether its growth is greater than or equal to 70%.
Return: TRUE

Enquiry: Textbook exercise: given the entry O=c1c2cc(-c3ccc(F)cc3F)ccc2n(Nc2ccccc2)c(=O)n1-c1cccc(C(F)(F)F)c1 , state whether its growth is greater than or equal to 70%.
Return: FALSE

Enquiry: Textbook exercise: given the entry NC(=O)n1c(=O)n(-c2cccc(C(F)(F)F)c2)c(=O)c2cc(-c3ccc(F)cc3F)ccc21 , state whether its growth is greater than or equal to 70%.
Return: FALSE

Enquiry: Textbook exercise: given the entry CN(C)c1cccc2c(S(=O)(=O)Nc3cccc(-c4csc(NC(=O)CCCCCN5CCN(CCO)CC5)n4)c3)cccc12 , state whether its growth is greater than or equal to 70%.
Return: FALSE

Enquiry: Textbook exercise: given the entry CCOC(=O)c1c(NC(=O)c2cccc(C(F)(F)F)c2)sc2c1CCC(=O)C2 , state whether its growth is greater than or equal to 70%.
Return: FALSE

Enquiry: Textbook exercise: given the entry CCCc1[nH]c(-c2cc(N)ccc2Cl)c2c1C(=O)CCCC2 , state whether its growth is greater than or equal to 70%.
Return: TRUE

Enquiry: Textbook exercise: given the entry CCN(CC)c1ccc(/C=N/NC(=O)c2ccc(NS(C)(=O)=O)cc2)c(O)c1 , state whether its growth is greater than or equal to 70%.
Return: FALSE

Enquiry: Textbook exercise: given the entry CCCCCCN1C=C/C(=C\C(=O)n2ccc3ccccc32)c2ccccc21 , state whether its growth is greater than or equal to 70%.
Return: TRUE

Enquiry: Textbook exercise: given the entry CSc1ccc(/C(=N/N=C(N)N)c2ccc(F)cc2)cc1 , state whether its growth is greater than or equal to 70%.
Return: FALSE

Enquiry: Textbook exercise: given the entry C[C@H]1OCC2(CCN(c3cnc(C(=O)Nc4cc(F)cc5cccnc45)cn3)CC2)[C@H]1N , state whether its growth is greater than or equal to 70%.
Return: FALSE

Enquiry: Textbook exercise: given the entry COc1ccc(C2C(C#N)=C(/N=C/c3ccc(Cl)cc3)Oc3c2sc2c(C)cccc32)cc1 (centres undefined) , state whether its growth is greater than or equal to 70%.
Return: FALSE

Enquiry: Textbook exercise: given the entry COC(=O)c1cccc(NC2=C(Cl)C(=O)c3nc(C)ccc3C2=O)c1 , state whether its growth is greater than or equal to 70%.
Return: TRUE

Enquiry: Textbook exercise: given the entry N#Cc1cccc(-c2cc(-c3ccc4c(c3)OCCO4)[nH]n2)c1 , state whether its growth is greater than or equal to 70%.
Return: TRUE

Enquiry: Textbook exercise: given the entry C1=CC(c2nn3c(-c4ccccc4)nnc3s2)=Cc2ccccc2O1 , state whether its growth is greater than or equal to 70%.
Return: FALSE

Enquiry: Textbook exercise: given the entry O=C1Nc2ccccc2/C1=N\c1nnc(-c2ccccc2)o1 , state whether its growth is greater than or equal to 70%.
Return: TRUE

Enquiry: Textbook exercise: given the entry N#Cc1c(-c2cccs2)cc(-c2cnccn2)nc1SCC(=O)N/N=C/c1ccc(Cl)cc1 , state whether its growth is greater than or equal to 70%.
Return: TRUE

Enquiry: Textbook exercise: given the entry CN1CCN(CC#CCn2c3c(c4ccccc42)C[C@]2(C)[C@H]4CC=C5[C@@H]6CC(C)(C)CC[C@]6(C(=O)N6CCOCC6)CC[C@@]5(C)[C@]4(C)CC[C@H]2C3(C)C)CC1 , state whether its growth is greater than or equal to 70%.
Return: FALSE

Enquiry: Textbook exercise: given the entry CCCC[n+]1ccc(SCC(=O)n2ccc3ccccc32)c2ccccc21 , state whether its growth is greater than or equal to 70%.
Return: TRUE

Enquiry: Textbook exercise: given the entry COc1ccc(C2c3[nH]c4ccc(Cl)cc4c3CCN2c2oc(CO)nc2C#N)cc1 (centres undefined) , state whether its growth is greater than or equal to 70%.
Return: FALSE

Enquiry: Textbook exercise: given the entry CCC1=Cc2c(OC)cccc2OC12C=Cc1c(OC)cccc1O2 (centres undefined) , state whether its growth is greater than or equal to 70%.
Return: FALSE

Enquiry: Textbook exercise: given the entry Clc1ccc2c(N/N=C/c3c[nH]c4ccccc34)ccnc2c1 , state whether its growth is greater than or equal to 70%.
Return: FALSE

Enquiry: Textbook exercise: given the entry CCN1CCN(c2ccc(NC(=O)Nc3ccc4c(ccn4-c4ccnc(C(=O)NC)c4)c3)cc2C(F)(F)F)CC1 , state whether its growth is greater than or equal to 70%.
Return: TRUE

Enquiry: Textbook exercise: given the entry O=C(CCCCCCN1CC(=O)N2[C@@H](c3ccccc3Br)c3[nH]c4ccccc4c3C[C@H]2C1=O)NO , state whether its growth is greater than or equal to 70%.
Return: FALSE

Enquiry: Textbook exercise: given the entry Cc1ccc([C@H]2c3[nH]c4ccccc4c3C[C@H]3C(=O)N(CCCCCCC(=O)NO)CC(=O)N23)s1 , state whether its growth is greater than or equal to 70%.
Return: FALSE

Enquiry: Textbook exercise: given the entry CCN(CC)CCOc1ccc(C(=C(C)c2ccc(OC)cc2)c2ccc(OCCN(CC)CC)cc2)cc1 , state whether its growth is greater than or equal to 70%.
Return: FALSE

Enquiry: Textbook exercise: given the entry Cc1ccc(NC2=C(Cl)C(=O)c3nc(C)ccc3C2=O)c(C)c1 , state whether its growth is greater than or equal to 70%.
Return: TRUE

Enquiry: Textbook exercise: given the entry CCCCCCCCCCCC(=O)NC(C)(C)C(=O)N1CCCC1C(=O)NC(C)(C)C(=O)NC(C)(C)C(=O)N1CCCC1C(=O)NC(C)(C)C(=O)NC(C)(C)C(=O)N1CCCC1C(=O)NC(C)C(=O)NCCC(=O)NC(C)C(=O)NC(C)(C)C(=O)NC(C)(C)C(=O)NC(C)(C)C(=O)NCCC(=O)NC(C)(C)C(=O)NC(C)(C)C(=O)NC(C)(C)C(=O)NC(C)C(=O)NCCC(=O)O (centres undefined) , state whether its growth is greater than or equal to 70%.
Return: FALSE

Enquiry: Textbook exercise: given the entry COC(=O)c1cccc(NC2=CC(=O)C(C)=C(C)C2=O)c1 , state whether its growth is greater than or equal to 70%.
Return: TRUE

Enquiry: Textbook exercise: given the entry Oc1[nH]c2ccc(Cl)cc2c1N=Nc1nc(N=Nc2c(O)[nH]c3ccc(Cl)cc23)nc(N2CCCCC2)n1 , state whether its growth is greater than or equal to 70%.
Return: TRUE

Enquiry: Textbook exercise: given the entry CCCNNC(=O)c1ccc(-c2ccc(NC(=O)CCCCCCC(=O)N[C@H](C(=O)N3C[C@H](O)C[C@H]3C(=O)N[C@@H](C)c3ccc(-c4scnc4C)cc3)C(C)(C)C)cc2)cc1 , state whether its growth is greater than or equal to 70%.
Return: FALSE

Enquiry: Textbook exercise: given the entry CC(C)C(/C=C/c1[nH]ncc1-c1cc(Cl)ccc1O)N1CCOCC1 (centres undefined) , state whether its growth is greater than or equal to 70%.
Return: TRUE
